- target desc: T1, Human Factor P (human, UniProt P27918 29-469)
- T1 construct: Bought protein (Complement Technology cat# A139) in SET and Biacore; Factor P of human serum in the functional assays; also called FP; human FP
- T1 sequence (P27918 29-469 limits assumed): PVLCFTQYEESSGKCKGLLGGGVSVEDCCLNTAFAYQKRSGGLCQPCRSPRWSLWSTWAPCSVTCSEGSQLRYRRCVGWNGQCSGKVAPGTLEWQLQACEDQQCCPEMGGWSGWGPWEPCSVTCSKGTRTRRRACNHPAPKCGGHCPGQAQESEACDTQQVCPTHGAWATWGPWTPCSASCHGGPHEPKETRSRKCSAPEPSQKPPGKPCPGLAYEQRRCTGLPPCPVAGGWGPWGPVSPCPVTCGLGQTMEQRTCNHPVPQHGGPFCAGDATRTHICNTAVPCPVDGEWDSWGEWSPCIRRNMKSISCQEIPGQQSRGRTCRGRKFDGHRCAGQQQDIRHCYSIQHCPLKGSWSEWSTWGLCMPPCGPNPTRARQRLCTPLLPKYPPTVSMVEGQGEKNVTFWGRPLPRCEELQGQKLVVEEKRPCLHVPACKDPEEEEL
- test description: Biacore SPR, captured Factor P
pKd: −log10 of the molar value.

binder	pKd
NVS962-Q (Fab, V domains shown, NVS962 with heavy chain N30 replaced with glutamine (deamidation site removed)) VH: EVQLVQSGAEVKKPGSSVKVSCKASGGTFQSYAISWVRQAPGQGLEWMGRIIPIFGTANYAQKFQGRVTITADESTSTAYMELSSLRSEDTAVYYCARHGGYSFDSWGQGTLVTVSS VL: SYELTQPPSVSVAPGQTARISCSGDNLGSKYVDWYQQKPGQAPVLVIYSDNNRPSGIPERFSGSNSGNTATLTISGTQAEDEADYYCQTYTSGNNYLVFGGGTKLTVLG	9.30
NVS962-S31A (Fab, V domains shown, NVS962 with heavy chain serine 31 replaced with alanine) VH: EVQLVQSGAEVKKPGSSVKVSCKASGGTFNAYAISWVRQAPGQGLEWMGRIIPIFGTANYAQKFQGRVTITADESTSTAYMELSSLRSEDTAVYYCARHGGYSFDSWGQGTLVTVSS VL: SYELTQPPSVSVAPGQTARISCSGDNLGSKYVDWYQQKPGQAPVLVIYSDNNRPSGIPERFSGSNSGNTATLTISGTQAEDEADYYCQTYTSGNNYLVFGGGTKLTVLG	9.65
NVS965-S (Fab, V domains shown, NVS965 with heavy chain N30 replaced with serine) VH: EVQLVQSGAEVKKPGSSVKVSCKASGGTFSSYAISWVRQAPGQGLEWMGRIIPIFGTANYAQKFQGRVTITADESTSTAYMELSSLRSEDTAVYYCARHGGYSFDSWGQGTLVTVSS VL: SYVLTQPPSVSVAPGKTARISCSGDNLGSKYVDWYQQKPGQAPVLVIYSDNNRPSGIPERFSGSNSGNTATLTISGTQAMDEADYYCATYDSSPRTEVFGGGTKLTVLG	10.57

Source of measurements: patent US20130295102A1
